Can you tell me %Inh for the items I'm about to list?
- Tested on: VPS34;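 note: KINOMEscan kinase panel screen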
- Construct: gene PIK3C3
- RECORDED_CONDITIONS: concentration: 1 μM, replicates: in singlicate; n = 1
Give your result in % as a bare value.

Kindly indicate its recorded %Inh. Item: O=C(O)C(F)(F)F.O=c1[nH]ccc2nc(N[C@@H]3CCNC3)nc(Nc3cc(Cl)cc(Cl)c3)c12
78

Supply recorded %Inh for COc1cccc(-c2nc(-c3ccccc3)[nH]c2-c2ccncc2)c1 here.
0

Provide one value: measured %Inh of Cl.O=C(Nc1ccc(Oc2ccc3[nH]c(NC(=O)c4ccco4)nc3c2)cc1)Nc1cc(C(F)(F)F)ccc1F
0

Supply reported %Inh belonging to this molecule: COc1cc(Nc2nccc(N3CCC(NS(=O)(=O)c4ccc(NC(C)=O)cc4)CC3)n2)cc(OC)c1OC
34

Identify %Inh associated with the molecule Cn1cc(-c2ccc3c(c2)CCN3C(=O)Cc2cc(F)cc(F)c2F)c2c(N)ncnc21
16

Note %Inh for the molecule shown: O=C1NC(=O)C(c2ccccc2Cl)=C1Nc1cccc(Cl)c1
0

Output measured %Inh for this item: COc1ccc(C)c(Nc2ccnc(Nc3ccc(-c4cnc[nH]4)cc3)n2)c1.Cl
54

Give the measured %Inh for CCn1cnc2c(NCc3ccccc3)ncnc21
33

Specify reported %Inh for the molecule shown: Cc1ccc(NC(=O)c2ccc(Cl)c(Cl)c2)cc1-c1ccc(C(=O)Nc2ccncc2)cc1
0

Report measured %Inh; entry is Cc1ccc(Nc2ccnc(Nc3ccc(C)c(F)c3)n2)cc1O.Cl
0

For the molecule Cl.N#CCc1ccc(Nc2nccc(Nc3ccc(Oc4ccccc4)cc3)n2)cc1 , give its reported %Inh.
0

For the molecule CCNC(=O)/C=C/c1n[nH]c2cc(Sc3ccccc3C(=O)NC)ccc12 , give its reported %Inh.
0

Quickly give me recorded %Inh for O=C(Nc1n[nH]c2nc(-c3ccccc3)ccc12)C1CC1
14

Please report %Inh for the following molecule: CS(=O)(=O)c1cccc(CNc2nc(Nc3ccc4c(c3)CCC(=O)N4)ncc2C(F)(F)F)c1
0

Specify reported %Inh for the molecule shown: CCOc1nccc(-c2c(-c3ccc(F)cc3)ncn2C2CCNCC2)n1
24

Provide only the value of recorded %Inh for Cl.Cl.NC(CNC(=O)c1cc(Br)c(-c2ccnc3[nH]ccc23)s1)c1ccccc1 (stereo not shown)
59

Could you please provide reported %Inh for CN(c1ccc(NC(=O)N2CCN(CCCN3CCOCC3)CC2)cc1)c1ccnc(Nc2ccc(CS(C)(=O)=O)cc2)n1.Cl ? Thanks!
0

Give the value of %Inh reported for the following: Nc1cccc(-c2ccc3c(N)n[nH]c3c2)c1
21

Determine from records and report %Inh for Cc1ccccc1CC(=O)N1CCc2cc(-c3cn(C)c4ncnc(N)c34)ccc21
2

Assign %Inh to the following record: CC(C)NCC(Cc1ccccc1)NC(=O)c1cc(Br)c(-c2ccnc3[nH]ccc23)s1.Cl.Cl (stereo not shown)
0

Give a short answer stating reported %Inh for Fc1cc(Cl)ccc1Nc1ccnc2cc(-c3ccc(CN4CCSCC4)o3)ccc12 .
0

Name the recorded %Inh of the item Cl.Cl.NCC(NC(=O)c1cc(-c2cccnc2)c(-c2ccnc3[nH]ccc23)s1)c1ccccc1 (stereo not shown) in your answer.
45

Note %Inh for the molecule shown: COc1cccc(CC(=O)N2CCc3cc(-c4cn(C)c5ncnc(N)c45)ccc32)c1
0

State its %Inh: O=C(Nc1n[nH]c2nc(-c3cccc(O)c3)ccc12)C1CC1
23

Give a short answer stating reported %Inh for Cn1cc(-c2ccc3c(c2)CCN3C(=O)Cc2cc(F)cc(C(F)(F)F)c2)c2c(N)ncnc21 .
3

State its %Inh: Cc1cccc(Nc2nc(N[C@H]3CCCC[C@H]3N)ncc2C(N)=O)c1.Cl
56

Look up and state reported %Inh for Cc1cc(-c2c(-c3ccc(F)cc3)ncn2CCCN2CCOCC2)nc(N)n1
29

Indicate its recorded %Inh; the molecule in question is O=C(Nc1n[nH]c2nc(-c3ccccc3O)ccc12)C1CC1
0

State, in one line, measured %Inh of COC(=O)Nc1nc2ccc(Oc3ccc(NC(=O)Nc4cc(C(F)(F)F)ccc4F)cc3)cc2[nH]1.Cl
0

Report measured %Inh; entry is CCNc1nccc(-c2c(-c3ccc(F)cc3)ncn2C2CCN(C)CC2)n1
0

Check the records and state %Inh for CC(C)c1nc(-c2cccc(NS(=O)(=O)c3c(F)cccc3F)c2)c(-c2ccnc(Nc3ccc(N4CCOCC4)nc3)n2)s1.Cl
0

Please report the measured %Inh for COC(=O)Nc1nc2ccc(Oc3ccc(CC(=O)Nc4cc(C(F)(F)F)ccc4F)cc3)cc2[nH]1
0

Provide %Inh value for the following molecule: O=C(Nc1n[nH]c2cc(-c3cccs3)ccc12)C1CC1
16

In one line, give reported %Inh of the entry Nc1ncc(-c2ccc3nccc(-c4ccncc4)c3c2)cc1S(=O)(=O)N1CCCCC1 .
95.5

Where do these numbers come from? They come from paper PMC5540273.
